Each entry below carries its recorded Semi-quantitative analysis of proteins binding to different plaque particles: Chl Large.
system: High Density cholesterol (Chl Large) plaque particles; experiment: Mass spectroscopy proteomics, semi-quantitative binding affinity of serum proteins (plaqueproteome, Table 2); set-up: species or system human; conditions: higher number = stronger affinity

Illustrative cases are given below, each with its answer.
molecule: Serum amyloid A-4 protein (protein) ESWRSFFKEALQGVGDMGRAYWDIMISNHQNSNRYLYARGNYDAAQRGPGGVWAAKLISRSRVYLQGLIDCYLFGNSSTVLEDSKSNEKAEEWGRSGKDPDRFRPDGLPKKY
result: 1
--
molecule: Dermcidin (protein) YDPEAASAPGSGNPCHEASAAQKENAGEDPGLARQAPKPRKQRSSLLEKGLDGAKKAVGGLGKLGKDAVEDLESVGKGAVHDVKDVLDSVL
result: 0
--
molecule: Isoform 2 of C4b-binding protein beta chain (protein) ASDEHCPELPPVDNSIFVAKEVEGQILGTYVCIKGYHLVGKKTLFCNASKEWDNTTTECRLGHCPDPVLVNGEFSSSGPVNVSDKITFMCNDHYILKGSNRSQCLEDHTWAPPFPICKSRDCDPPGNPVHGYFEGNNFTLGSTISYYCEDRYYLVGVQEQQCVDGEWSSALPVCKLIQEAPKPECEKALLAFQESKNLCEAMENFMQQLKESGMTMEELKYSLELKKAELKAKLL
result: 0

Identify the reported Semi-quantitative analysis of proteins binding to different plaque particles: Chl Large for the following entry. Apolipoprotein M (protein) MFHQIWAALLYFYGIILNSIYQCPEHSQLTTLGVDGKEFPEVHLGQWYFIAGAAPTKEELATFDPVDNIVFNMAAGSAPMQLHLRATIRMKDGLCVPRKWIYHLTEGSTDLRTEGRPDMKTELFSSSCPGGIMLNETGQGYQRFLLYNRSPHPPEKCVEEFKSLTSCLDSKAFLLTPRNQEACELSNN
0

Please indicate Semi-quantitative analysis of proteins binding to different plaque particles: Chl Large recorded for Platelet factor 4 variant (protein) FARAEAEEDGDLQCLCVKTTSQVRPRHITSLEVIKAGPHCPTAQLIATLKNGRKICLDLQALLYKKIIKEHLES
1

Indicate the recorded Semi-quantitative analysis of proteins binding to different plaque particles: Chl Large value for this molecule: Ig kappa chain V-I region BAN (protein) DIQMTQSPSSLSASVGDRVTITCRASQGISNYLAWFQQKPGKAPKSLIYAASSLQSGVPSKFSGSGSGTDFTLTISSLQPEDFATYYCQQYNSYP
2

Specify Semi-quantitative analysis of proteins binding to different plaque particles: Chl Large for Caspase-14 (protein) MSNPRSLEEEKYDMSGARLALILCVTKAREGSEEDLDALEHMFRQLRFESTMKRDPTAEQFQEELEKFQQAIDSREDPVSCAFVVLMAHGREGFLKGEDGEMVKLENLFEALNNKNCQALRAKPKVYIIQACRGEQRDPGETVGGDEIVMVIKDSPQTIPTYTDALHVYSTVEGYIAYRHDQKGSCFIQTLVDVFTKRKGHILELLTEVTRRMAEAELVQEGKARKTNPEIQSTLRKRLYLQ and stop.
0

Return the recorded Semi-quantitative analysis of proteins binding to different plaque particles: Chl Large value; entry: Serpin B3 (protein) MNSLSEANTKFMFDLFQQFRKSKENNIFYSPISITSALGMVLLGAKDNTAQQIKKVLHFDQVTENTTGKAATYHVDRSGNVHHQFQKLLTEFNKSTDAYELKIANKLFGEKTYLFLQEYLDAIKKFYQTSVESVDFANAPEESRKKINSWVESQTNEKIKNLIPEGNIGSNTTLVLVNAIYFKGQWEKKFNKEDTKEEKFWPNKNTYKSIQMMRQYTSFHFASLEDVQAKVLEIPYKGKDLSMIVLLPNEIDGLQKLEEKLTAEKLMEWTSLQNMRETRVDLHLPRFKVEESYDLKDTLRTMGMVDIFNGDADLSGMTGSRGLVLSGVLHKAFVEVTEEGAEAAAATAVVGFGSSPTSTNEEFHCNHPFLFFIRQNKTNSILFYGRFSSP
0
